Test system: Hepatotoxicity
experimental details: FDA HLAED, serum glutamic pyruvic transaminase (SGPT) increase
assay setup: human
For each of the molecules below, state its SGPT Increase - Index Value.
Give bare numbers.

Guide cases for SGPT Increase - Index Value, answers given:
1. CCn1cc(C(=O)O)c(=O)c2cc(F)c(N3CCNCC3)cc21 [NORFLOXACIN]
3
2. NCCCC[C@H](N[C@@H](CCc1ccccc1)C(=O)O)C(=O)N1CCC[C@H]1C(=O)O [LISINOPRIL ANHYDROUS]
1.4
3. C[C@H](CCC(=O)O)[C@H]1CC[C@H]2[C@@H]3[C@H](O)C[C@@H]4C[C@H](O)CC[C@]4(C)[C@H]3CC[C@]12C [CHENODIOL]
0

// input: 5 molecules below; output: SGPT Increase - Index Value for each
1. CC(C)(C)NCC(O)COc1cccc2c1CCC(=O)N2 (configuration not stated) [CARTEOLOL]
2. NC(N)=Nc1nc(CSCCC(N)=NS(N)(=O)=O)cs1 [FAMOTIDINE]
3. CC(C)NCC(O)COc1ccc(COCCOC(C)C)cc1 (configuration not stated) [BISOPROLOL]
4. NNC(=O)c1ccncc1 [ISONIAZID]
5. CO/N=C(\C(=O)N[C@@H]1C(=O)N2C(C(=O)O)=C(CSc3nc(=O)c(=O)[nH]n3C)CS[C@H]12)c1csc(N)n1 [CEFTRIAXONE]

1. 0.5
2. 0.7
3. 3.1
4. 34.7
5. 3.8

Please give SGPT Increase - Index Value for each item listed below.
1. CN(C/C=C/C#CC(C)(C)C)Cc1cccc2ccccc12 [TERBINAFINE]
2. CC(C)C(=O)Nc1ccc([N+](=O)[O-])c(C(F)(F)F)c1 [FLUTAMIDE]
3. CCN1CCN(C(=O)N[C@@H](C(=O)N[C@@H]2C(=O)N3[C@@H]2SC(C)(C)[C@@H]3C(=O)O)c2ccccc2)C(=O)C1=O [PIPERACILLIN]
4. C[C@H]1C[C@H]2[C@@H]3CCC4=CC(=O)C=C[C@]4(C)[C@@]3(Cl)[C@@H](O)C[C@]2(C)[C@@]1(O)C(=O)CO [BECLOMETHASONE]
5. Cc1cccc(C)c1NC(=O)C(C)N (configuration not stated) [TOCAINIDE]
6. COc1ccc([C@@H]2Sc3ccccc3N(CCN(C)C)C(=O)[C@@H]2OC(C)=O)cc1 [DILTIAZEM]
7. CC(C)(C)NC(=O)[C@@H]1CN(Cc2cccnc2)CCN1C[C@@H](O)C[C@@H](Cc1ccccc1)C(=O)N[C@H]1c2ccccc2C[C@H]1O.O
8. C=C1CC[C@@]2(O)[C@H]3Cc4ccc(O)c5c4[C@@]2(CCN3CC2CC2)[C@H]1O5

2.8
20.2
0
0
2.2
0.1
116.4
0

For the 5 molecules below, give their SGPT Increase - Index Value values.
1. NCC1(CC(=O)O)CCCCC1 [GABAPENTIN]
2. Nc1ccn([C@@H]2O[C@H](CO)[C@@H](O)[C@@H]2O)c(=O)n1 [CYTARABINE]
3. Cc1nc2n(c(=O)c1CCN1CCC(c3noc4cc(F)ccc34)CC1)CCCC2 [RISPERIDONE]
4. CCN[C@@H](C)Cc1cccc(C(F)(F)F)c1 [DEXFENFLURAMINE]
5. COc1cc2nc(N3CCN(C(=O)C4CCCO4)CC3)nc(N)c2cc1OC (configuration not stated) [TERAZOSIN]

[0.8, 4.1, 4.9, 0.6, 1.3]

What is its SGPT Increase - Index Value for Hepatotoxicity? Entry: COc1cc(NCc2ccc3nc(N)nc(N)c3c2C)cc(OC)c1OC [TRIMETREXATE]
38.8
